Quick reference: SLC25A15 expression, Fold change (Log 2) vs untreated of the listed items.
tested on: SLC25A15; test: RNA-seq, SLC25A15 expression in compound-treated primary human hepatocytes; format: cell-based; details: compounds that significantly increase SLC25A15 expression
Phrase the answer as number then unit, nothing more needed.

Examples with answers:
C[C@]12C[C@H](O)[C@H]3[C@@H](CCC4=CC(=O)CC[C@@]43C)[C@@H]1CC[C@@H]2C(=O)CO [Corticosterone] = 0.96 Log 2
CNC[C@H](O)c1ccc(O)c(O)c1 [Epinephrine] = 1.14 Log 2
COCCOc1ccc2c(c1)ncn2-c1ccc2cccc(N3CCC(N)CC3)c2n1 [CP-673451] = 0.76 Log 2

Moving on to another molecule below.
**Q:** I have this molecule here, COc1nc(N)nc2c1ncn2[C@@H]1O[C@H](COP(=O)(N[C@@H](C)C(=O)OCC(C)(C)C)Oc2cccc3ccccc23)[C@@H](O)[C@@]1(C)O (stereo partly shown) [bms-986094 (inx-189)] , and I need its recorded SLC25A15 expression, Fold change (Log 2) vs untreated.
**A:** 1.18 Log 2
